tested on: T. gambiense (BSF); assay: Drug sensitivity assay, T. gambiense bloodstream form (resazurine); assay type: cell-based, Trypanosoma gambiense; settings: Trypanosoma brucei; reference compound; T. gambiense (BSF); 72 h; read-out: control EC50
pEC50: −log10 of the molar value.
quantity measured: pEC50

{"columns": ["compound", "observed measurement"],
 "data": [
  ["N=C(N)c1ccc(OCCCCCOc2ccc(C(=N)N)cc2)cc1 [pentamidine]", 8.70]
]}

* * *

tested on: G. intestinalis; assay: Drug sensitivity assay, G. intestinalis (flow cytometry); assay type: cell-based; conditions: Giardia duodenalis; reference compound; G. intestinalis; 24 h; read-out: control EC50
pEC50: −log10 of the molar value.
quantity measured: pEC50

{"columns": ["compound", "quantity measured", "observed measurement"],
 "data": [
  ["O=C(Cn1ccnc1[N+](=O)[O-])NCc1ccccc1 [benznidazole]", "pEC50", 5.59]
]}

* * *

test system: L. mexicana (amastigote); assay: Drug sensitivity assay, axenic L. mexicana amastigote (flow cytometry); assay type: cell-based, Leishmania mexicana; settings: axenic monoculture; read-out: EC50 axenic Leishmania mexicana

{"columns": ["compound", "EC50, nM"],
 "data": [
  ["CN(C)CCOc1ccc(/C(=C(/CCCCCCCCCC[P+](c2ccccc2)(c2ccccc2)c2ccccc2)c2ccccc2)c2ccccc2)cc1 [MitoTam]", 350]
]}

* * *

test system: B. divergens; assay: Drug sensitivity assay, B. divergens in bovine erythrocytes (flow cytometry); format: cell-based, Babesia divergens; details: Babesia divergens, Erythrocyte; reference compound; B. divergens; 48 h; read-out: control EC50

{"columns": ["compound", "unit descriptor", "EC50"],
 "data": [
  ["O=C1C(O)=C([C@H]2CC[C@H](c3ccc(Cl)cc3)CC2)C(=O)c2ccccc21 [atovaquone, reference compound]", "nM", 8]
]}
